Reported inhibition at 1000 µM is given for each of the following compounds.
target: MAO-A (Homo sapiens); test: In vitro MAO-A inhibition assay (fluorometric); assay type: biochemical; details: 10^–3 M
Sequence (P21397 whole entry): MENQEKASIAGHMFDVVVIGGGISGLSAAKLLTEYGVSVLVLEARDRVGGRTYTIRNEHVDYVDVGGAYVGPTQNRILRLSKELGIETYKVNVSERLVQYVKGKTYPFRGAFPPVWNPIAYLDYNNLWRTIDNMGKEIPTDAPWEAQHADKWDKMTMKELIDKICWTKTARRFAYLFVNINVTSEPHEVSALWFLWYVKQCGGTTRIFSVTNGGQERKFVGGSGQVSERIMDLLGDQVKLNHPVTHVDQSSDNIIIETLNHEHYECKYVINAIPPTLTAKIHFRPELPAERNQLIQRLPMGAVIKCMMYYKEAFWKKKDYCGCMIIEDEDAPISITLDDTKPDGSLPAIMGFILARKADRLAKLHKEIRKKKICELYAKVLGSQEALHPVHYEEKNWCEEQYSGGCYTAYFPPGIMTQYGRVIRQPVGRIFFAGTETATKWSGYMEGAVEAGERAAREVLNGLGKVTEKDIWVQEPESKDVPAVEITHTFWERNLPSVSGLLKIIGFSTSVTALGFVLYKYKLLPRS
measured.quantity: inhibition at 1000 µM (%)

> print(dat)
                                   compound                   tgt      measured.quantity  value.observed
1  COc1ccc2c(c1)C(=O)/C(=C/c1ccc(NC(=O)CN3CCN(CCCO)CC3)cc1)C2 [D20]  MAO-A (Homo sapiens)  inhibition at 1000 µM            81.9
2  COc1ccc2c(c1)C/C(=C\c1ccc(NC(=O)CN(C)CCN(C)C)cc1)C2=O [D34]  MAO-A (Homo sapiens)  inhibition at 1000 µM            82.1
3  COc1ccc2c(c1)C/C(=C\c1ccc(NC(=O)CN3CCN(CCCN(C)C)CC3)cc1)C2=O [D25]  MAO-A (Homo sapiens)  inhibition at 1000 µM            80.4

* * *

biological target: AChE (Homo sapiens, UniProt P22303); experiment: biochemical; settings: 10^–3 M
Sequence (P22303 32-614): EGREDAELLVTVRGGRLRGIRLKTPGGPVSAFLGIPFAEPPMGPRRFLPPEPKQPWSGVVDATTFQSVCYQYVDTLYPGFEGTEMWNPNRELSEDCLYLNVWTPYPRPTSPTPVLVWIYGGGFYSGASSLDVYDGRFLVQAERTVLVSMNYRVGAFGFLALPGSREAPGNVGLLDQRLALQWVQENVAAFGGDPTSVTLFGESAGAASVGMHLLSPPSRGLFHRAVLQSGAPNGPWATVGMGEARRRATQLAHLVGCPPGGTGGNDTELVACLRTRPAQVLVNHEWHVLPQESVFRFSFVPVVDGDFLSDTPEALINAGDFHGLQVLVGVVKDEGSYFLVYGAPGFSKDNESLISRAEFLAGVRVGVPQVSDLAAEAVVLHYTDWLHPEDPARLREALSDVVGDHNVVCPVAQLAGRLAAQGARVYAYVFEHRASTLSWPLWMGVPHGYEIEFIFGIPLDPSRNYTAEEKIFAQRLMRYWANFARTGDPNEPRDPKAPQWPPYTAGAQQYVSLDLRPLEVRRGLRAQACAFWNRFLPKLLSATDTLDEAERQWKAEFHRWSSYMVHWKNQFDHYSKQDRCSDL
measured.quantity: inhibition at 1000 µM (%)

> print(dat)
                                    compound                                  tgt      measured.quantity  value.observed
 1  COc1ccc2c(c1)C(=O)/C(=C/c1ccc(NC(=O)CN3CCN(C)CC3)cc1)C2 [D2]  AChE (Homo sapiens, UniProt P22303)  inhibition at 1000 µM            50.3
 2  COc1ccc2c(c1)C(=O)/C(=C/c1ccc(NC(=O)CN(C)CCCN(C)C)cc1)C2 [D38]  AChE (Homo sapiens, UniProt P22303)  inhibition at 1000 µM            93.2
 3  COCCN1CCN(CC(=O)Nc2ccc(/C=C3\Cc4ccc(OC)cc4C3=O)cc2)CC1 [D14]  AChE (Homo sapiens, UniProt P22303)  inhibition at 1000 µM            44.2
 4  CCN1CCN(CC(=O)Nc2ccc(/C=C3\Cc4cc(OC)c(OC)cc4C3=O)cc2)CC1 [D6]  AChE (Homo sapiens, UniProt P22303)  inhibition at 1000 µM            97.5
 5  C=CCN1CCN(CC(=O)Nc2ccc(/C=C3\Cc4cc(OC)c(OC)cc4C3=O)cc2)CC1 [D9]  AChE (Homo sapiens, UniProt P22303)  inhibition at 1000 µM            81.3
 6  COCCN1CCN(CC(=O)Nc2ccc(/C=C3\Cc4cc(OC)ccc4C3=O)cc2)CC1 [D13]  AChE (Homo sapiens, UniProt P22303)  inhibition at 1000 µM            71.2
 7  C#CCN1CCN(CC(=O)Nc2ccc(/C=C3\Cc4cc(OC)ccc4C3=O)cc2)CC1 [D10]  AChE (Homo sapiens, UniProt P22303)  inhibition at 1000 µM            71.3
 8  COc1ccc2c(c1)C(=O)/C(=C/c1ccc(NC(=O)CN(C)CCN(C)C)cc1)C2 [D35]  AChE (Homo sapiens, UniProt P22303)  inhibition at 1000 µM            95.7
 9  COc1ccc2c(c1)C(=O)/C(=C/c1ccc(NC(=O)CN3CCN(CCCO)CC3)cc1)C2 [D20]  AChE (Homo sapiens, UniProt P22303)  inhibition at 1000 µM            98.3
10  CCN(CC)CCN(CC)CC(=O)Nc1ccc(/C=C2\Cc3cc(OC)ccc3C2=O)cc1 [D40]  AChE (Homo sapiens, UniProt P22303)  inhibition at 1000 µM            81.3
11  COc1cc2c(cc1OC)C(=O)/C(=C/c1ccc(NC(=O)CN3CCN(CCO)CC3)cc1)C2 [D18]  AChE (Homo sapiens, UniProt P22303)  inhibition at 1000 µM            94.7
12  C#CCN(C)CC(=O)Nc1ccc(/C=C2\Cc3cc(OC)ccc3C2=O)cc1 [D31]  AChE (Homo sapiens, UniProt P22303)  inhibition at 1000 µM            41.3
13  CCN(CC)CCN(CC)CC(=O)Nc1ccc(/C=C2\Cc3ccc(OC)cc3C2=O)cc1 [D41]  AChE (Homo sapiens, UniProt P22303)  inhibition at 1000 µM              81

* * *

biological target: BChE (Homo sapiens, UniProt P06276); assay: biochemical; settings: 10^–3 M
Sequence (P06276 29-602): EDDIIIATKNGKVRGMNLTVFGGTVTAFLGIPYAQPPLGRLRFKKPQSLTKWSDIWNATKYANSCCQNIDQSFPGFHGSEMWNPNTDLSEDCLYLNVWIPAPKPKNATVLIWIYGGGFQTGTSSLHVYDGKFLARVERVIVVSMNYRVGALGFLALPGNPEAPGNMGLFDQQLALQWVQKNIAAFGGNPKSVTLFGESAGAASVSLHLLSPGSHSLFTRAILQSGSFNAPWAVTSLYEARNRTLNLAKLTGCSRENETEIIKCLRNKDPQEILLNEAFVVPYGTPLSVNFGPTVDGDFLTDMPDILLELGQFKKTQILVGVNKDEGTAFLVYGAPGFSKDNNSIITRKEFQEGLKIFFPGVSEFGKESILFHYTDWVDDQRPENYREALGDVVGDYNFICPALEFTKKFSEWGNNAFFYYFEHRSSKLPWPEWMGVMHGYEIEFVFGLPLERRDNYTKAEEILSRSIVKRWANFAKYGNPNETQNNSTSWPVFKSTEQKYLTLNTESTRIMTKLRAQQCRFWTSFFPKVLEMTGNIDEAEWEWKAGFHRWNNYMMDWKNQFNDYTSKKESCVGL
// -1 strictly below 50% in inhibition at 1000 µM; 1 otherwise

> print(dat)
                            chemical.string  category.label
1  COc1cc2c(cc1OC)C(=O)/C(=C/c1ccc(NC(=O)CN3CCN(CCO)CC3)cc1)C2               1
2  C=CCN1CCN(CC(=O)Nc2ccc(/C=C3\Cc4cc(OC)c(OC)cc4C3=O)cc2)CC1               1
3  C#CCN1CCN(CC(=O)Nc2ccc(/C=C3\Cc4cc(OC)ccc4C3=O)cc2)CC1              -1
4  COc1ccc2c(c1)C/C(=C\c1ccc(NC(=O)CN3CCN(CCCO)CC3)cc1)C2=O               1

* * *

biological target: BChE (Homo sapiens, UniProt P06276); experiment: biochemical; settings: 10^–4 M
Reported inhibition at 100 µM is given for each of the following compounds.
measured.quantity: inhibition at 100 µM (%)

> print(dat)
                            chemical.string  value.observed
1  COc1ccc2c(c1)C/C(=C\c1ccc(NC(=O)CN(C)CCCN(C)C)cc1)C2=O            89.7
2  COc1ccc2c(c1)C/C(=C\c1ccc(NC(=O)CN3CCN(CCO)CC3)cc1)C2=O            23.6
3  CCN(CC)CCN(CC)CC(=O)Nc1ccc(/C=C2\Cc3ccc(OC)cc3C2=O)cc1            46.3
4  C#CCN1CCN(CC(=O)Nc2ccc(/C=C3\Cc4cc(OC)c(OC)cc4C3=O)cc2)CC1            48.8
5  C=CCN1CCN(CC(=O)Nc2ccc(/C=C3\Cc4cc(OC)c(OC)cc4C3=O)cc2)CC1            28.2
6  COc1ccc2c(c1)C/C(=C\c1ccc(NC(=O)CN3CCN(CCN(C)C)CC3)cc1)C2=O            39.5

* * *

molecular target: AChE (Homo sapiens); assay: biochemical; conditions: 10^–3 M
measured.quantity: inhibition at 1000 µM

> print(dat)
                                   molecule  value.observed
1  COc1ccc2c(c1)C/C(=C\c1ccc(NC(=O)CN3CCN(CCCN(C)C)CC3)cc1)C2=O [D25]           92.6%
2  C#CCN1CCN(CC(=O)Nc2ccc(/C=C3\Cc4ccc(OC)cc4C3=O)cc2)CC1 [D11]           66.6%
3  COc1cc2c(cc1OC)C(=O)/C(=C/c1ccc(NC(=O)CN3CCN(CCCN(C)C)CC3)cc1)C2 [D27]           91.2%
4  CCCN(C)CC(=O)Nc1ccc(/C=C2\Cc3cc(OC)ccc3C2=O)cc1 [D28]           98.6%

* * *

biological target: BChE (Homo sapiens, UniProt P06276); assay: biochemical; conditions: 10^–3 M
measured.quantity: inhibition at 1000 µM (%)

> print(dat)
                                   compound      measured.quantity  value.observed
1  COCCN1CCN(CC(=O)Nc2ccc(/C=C3\Cc4cc(OC)c(OC)cc4C3=O)cc2)CC1  inhibition at 1000 µM            94.6
2  C#CCN1CCN(CC(=O)Nc2ccc(/C=C3\Cc4cc(OC)c(OC)cc4C3=O)cc2)CC1  inhibition at 1000 µM            98.4
3  CCCN(C)CC(=O)Nc1ccc(/C=C2\Cc3cc(OC)ccc3C2=O)cc1  inhibition at 1000 µM            61.3
4  COc1ccc2c(c1)C(=O)/C(=C/c1ccc(NC(=O)CN3CCN(C)CC3)cc1)C2 [D2]  inhibition at 1000 µM            61.3

* * *

Target: MAO-B (Homo sapiens)
Sequence (P27338 1-520): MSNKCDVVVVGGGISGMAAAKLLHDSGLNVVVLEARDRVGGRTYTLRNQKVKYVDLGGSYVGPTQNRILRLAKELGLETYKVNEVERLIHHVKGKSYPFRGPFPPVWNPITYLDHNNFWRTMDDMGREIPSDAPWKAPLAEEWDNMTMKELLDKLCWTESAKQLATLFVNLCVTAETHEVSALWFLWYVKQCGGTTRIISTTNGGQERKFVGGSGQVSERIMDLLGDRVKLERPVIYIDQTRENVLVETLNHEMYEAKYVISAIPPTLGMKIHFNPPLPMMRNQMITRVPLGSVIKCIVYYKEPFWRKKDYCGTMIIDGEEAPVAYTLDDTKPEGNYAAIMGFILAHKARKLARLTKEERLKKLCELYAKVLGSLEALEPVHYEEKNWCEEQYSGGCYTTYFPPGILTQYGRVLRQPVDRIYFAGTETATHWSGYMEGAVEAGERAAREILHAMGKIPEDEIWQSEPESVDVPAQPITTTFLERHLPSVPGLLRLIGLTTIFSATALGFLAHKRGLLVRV
pIC50: −log10 of the molar value.
measured.quantity: pIC50

> print(dat)
                                   compound  value.observed
1  CCCN(C)CC(=O)Nc1ccc(/C=C2\Cc3cc(OC)c(OC)cc3C2=O)cc1 [D30]            7.34
2  CCCN(C)CC(=O)Nc1ccc(/C=C2\Cc3ccc(OC)cc3C2=O)cc1 [D29]            7.39
3  CCCN(C)CC(=O)Nc1ccc(/C=C2\Cc3cc(OC)ccc3C2=O)cc1 [D28]            7.39
